Each recorded value in this set is attributed to ChEMBL document CHEMBL4689842.

# Tested on: U2OS
# measurementProtocol: Multiplex assay against U2OS
# Format: toxicity, cell-based
# conditionDetails: human, 24 h, 1 µM, compound concentration 1 uM, replicate 1
Entries annotated with measured Population Mitochondria Different-Phenotype (%)
Express it in %; write the number only.

# annotated cases, reported Population Mitochondria Different-Phenotype (%) shown
| compound | unitDescriptor | recordedResult |
| --- | --- | --- |
| CCNc1cc(N[C@H]2CC[C@H](O)CC2)nc(Nc2ccc3c(ccn3Cc3ccccc3)c2)n1 | % | 42 |
| Cc1cc(C)c(S(=O)(=O)N(Cc2ccc(-c3cccc(S(C)(=O)=O)c3)cc2)Cc2ccc(C(F)(F)F)o2)c(C)c1 | % | 13 |
| CCCn1c(=O)c2[nH]c(-c3cnn(Cc4cccc(C(F)(F)F)c4)c3)nc2n(CC)c1=O [GS 6201] | % | 7 |
| CNC(=O)c1ccc(Nc2nc(OC3CCCC3)c3c(-c4ccc5nc(C)oc5c4)c[nH]c3n2)c(OC)c1 | % | 84 |
| CCn1cc(-c2ccnc3[nH]c(-c4cccc(CN(C)C)c4)cc23)c(-c2ccc(NC(=O)N(C)C)cc2)n1 [GSK-1070916] | % | 27 |
| NC(=O)c1cccc(-c2cc(Nc3ccc(OC(F)(F)F)cc3)ncn2)c1 | % | 23 |
| CNc1cc(Oc2cc(C(=O)Nc3cc(N4CCN(C)CC4)cc(C(F)(F)F)c3)ccc2C)ncn1 | % | 64 |
| O=C(Cc1ccc(-c2ccc(OCCN3CCOCC3)cc2)cn1)NCc1ccccc1 [TIRBANIBULIN] | % | 35 |

Request: // query Population Mitochondria Different-Phenotype (%) value for entry C=CCn1c(=O)c2cnc(Nc3ccc(N4CCN(C)CC4)cc3)nc2n1-c1cccc(C(C)(C)O)n1 [ADAVOSERTIB]
Response: 25

Request: // query Population Mitochondria Different-Phenotype (%) value for entry CN1C2CCC1CC(OC(c1ccc(F)cc1)c1ccc(F)cc1)C2.Cl (configuration not stated)
Response: 6

Request: // query Population Mitochondria Different-Phenotype (%) value for entry COc1cccc2cc(-c3nc([C@H]4CC[C@H](C(=O)O)CC4)n4ncnc(N)c34)[nH]c12 [OSI-027]
Response: 5

Request: // query Population Mitochondria Different-Phenotype (%) value for entry CCc1cccc(CC)c1NC(=O)c1nn(C)c2c1CCc1cnc(Nc3ccc(N4CCN(C)CC4)cc3OC)nc1-2
Response: 100

Request: // query Population Mitochondria Different-Phenotype (%) value for entry CN1CCN(C(=O)C(C)(C)c2ccc(C(=O)Nc3cn4cc(-c5cc(C(C)(C)C)cc(C(C)(C)C)c5)ccc4n3)cc2)CC1 [T3-CLK-N]
Response: 14

Request: // query Population Mitochondria Different-Phenotype (%) value for entry Cl.O=c1c2cccn2c2ccccc2n1CCCN1CCC(c2ccc(Cl)cc2)CC1
Response: 45

Request: // query Population Mitochondria Different-Phenotype (%) value for entry COC(=N)c1nc2ccc3ncnc(Nc4ccc(OC)cc4F)c3c2s1
Response: 22

Request: // query Population Mitochondria Different-Phenotype (%) value for entry CN1CCC(=C2c3ccccc3CC(=O)c3sccc32)CC1.O=C(O)/C=C/C(=O)O [KETOTIFEN FUMARATE]
Response: 16

Request: // query Population Mitochondria Different-Phenotype (%) value for entry CCOc1cc(C(=O)N2CCC(N3CCN(C)CC3)CC2)ccc1Nc1ncc2c(n1)N(C1CCCC1)c1ccccc1C(=O)N2C
Response: 64

---

Entries annotated with measured Population Healthy Nuclei (%)
# Test system: HEK-293T
# measurementProtocol: Multiplex assay against HEK293T
# Format: toxicity, cell-based
# conditionDetails: human, 48 h, 1 µM, compound concentration 1 uM, replicate 1
Express it in %; write the number only.

# annotated cases, reported Population Healthy Nuclei (%) shown
| compound | systemTested | propertyMeasured | recordedResult |
| --- | --- | --- | --- |
| CN1CCC(=C2c3ccccc3CC(=O)c3sccc32)CC1.O=C(O)/C=C/C(=O)O [KETOTIFEN FUMARATE] | HEK-293T | Population Healthy Nuclei (%) | 40 |
| C=C1/C(=C\C=C2/CCC[C@]3(C)[C@@H]([C@H](C)/C=C/[C@H](C)C(C)C)CC[C@@H]23)C[C@@H](O)C[C@@H]1O | HEK-293T | Population Healthy Nuclei (%) | 33 |
| CCOc1cc2ncc(C#N)c(Nc3ccc(OCc4ccccn4)c(Cl)c3)c2cc1NC(=O)/C=C/CN(C)C | HEK-293T | Population Healthy Nuclei (%) | 17 |
| O=C(Nc1ccc(Cl)cc1)Nc1cccc(-c2cccc(N3CCCC3)n2)c1 | HEK-293T | Population Healthy Nuclei (%) | 57 |
| O=C(Nc1ccc(-n2nc(-c3cccnc3)cc2C(F)(F)F)cn1)c1ccc(-c2ccccc2)c(F)c1 | HEK-293T | Population Healthy Nuclei (%) | 35 |
| CCn1c(=O)c(-c2ccc(-c3cncs3)cc2Cl)cc2cnc(Nc3ccc(N4CCN(C)CC4)cc3)nc21 | HEK-293T | Population Healthy Nuclei (%) | 57 |
| O=C(Cc1ccc(-c2ccc(OCCN3CCOCC3)cc2)cn1)NCc1ccccc1 | HEK-293T | Population Healthy Nuclei (%) | 23 |

Request: // query Population Healthy Nuclei (%) value for entry CCOc1cc(C(=O)N2CCC(N3CCN(C)CC3)CC2)ccc1Nc1ncc2c(n1)N(C1CCCC1)c1ccccc1C(=O)N2C
Response: 31

---

# Test system: Fibroblast
# measurementProtocol: Multiplex assay against human fibroblast
# Type: toxicity, cell-based
# conditionDetails: 24 h, 1 µM, compound concentration 1 uM, replicate 2
Entries annotated with measured Population Hoechst High Intensity Objects (%)
Express it in %; write the number only.

# annotated cases, reported Population Hoechst High Intensity Objects (%) shown
| compound | recordedResult |
| --- | --- |
| CCOc1cc2ncc(C#N)c(Nc3ccc(OCc4ccccn4)c(Cl)c3)c2cc1NC(=O)/C=C/CN(C)C [NERATINIB] | 5 |
| COc1cccc2cc(-c3nc([C@H]4CC[C@H](C(=O)O)CC4)n4ncnc(N)c34)[nH]c12 [OSI-027] | 34 |
| CN1CCC(=C2c3ccccc3CC(=O)c3sccc32)CC1.O=C(O)/C=C/C(=O)O [KETOTIFEN FUMARATE] | 7 |
| O=C(Nc1ccc(-c2ccnc(Nc3ccc(N4CCOCC4)cc3)n2)cc1)[C@@H]1CCCN1 | 6 |
| Cc1ccc2nc(NCCN)c3ncc(C)n3c2c1.O=C(O)C(F)(F)F.O=C(O)C(F)(F)F | 43 |

Request: // query Population Hoechst High Intensity Objects (%) value for entry Cl.Oc1ccc2c3c1O[C@H]1c4[nH]c5c(c4C[C@@]4(O)[C@@H](C2)N(CC2CC2)CC[C@]314)C[C@@]1(O)[C@H]2Cc3ccc(O)c4c3[C@@]1(CCN2CC1CC1)[C@H]5O4
Response: 4

Request: // query Population Hoechst High Intensity Objects (%) value for entry O=C1NC(=O)C(c2cnc3ccccn23)=C1c1cn2c3c(cc(F)cc13)CN(C(=O)N1CCCCC1)CC2 [LY-2090314]
Response: 13

Request: // query Population Hoechst High Intensity Objects (%) value for entry CNc1cc(Oc2cc(C(=O)Nc3cc(N4CCN(C)CC4)cc(C(F)(F)F)c3)ccc2C)ncn1
Response: 6

Request: // query Population Hoechst High Intensity Objects (%) value for entry COc1cc2ncnc(Nc3ccc(F)c(Cl)c3)c2cc1NC(=O)/C=C/CN1CCCCC1 [DACOMITINIB ANHYDROUS]
Response: 57

Request: // query Population Hoechst High Intensity Objects (%) value for entry Cc1ccc(C(=O)Nc2cccc(C(F)(F)F)c2)cc1Nc1nc(-c2cccnc2)nc2c1cnn2C
Response: 3

Request: // query Population Hoechst High Intensity Objects (%) value for entry Cc1cc(C)c(S(=O)(=O)N(Cc2ccc(-c3cccc(S(C)(=O)=O)c3)cc2)Cc2ccc(C(F)(F)F)o2)c(C)c1
Response: 1

Request: // query Population Hoechst High Intensity Objects (%) value for entry Cc1cn(-c2cc(NC(=O)c3ccc(C)c(Nc4nccc(-c5cccnc5)n4)c3)cc(C(F)(F)F)c2)cn1 [NILOTINIB]
Response: 5

Request: // query Population Hoechst High Intensity Objects (%) value for entry CN1C2CCC1CC(OC(c1ccc(F)cc1)c1ccc(F)cc1)C2.Cl (stereo unspecified)
Response: 2

Request: // query Population Hoechst High Intensity Objects (%) value for entry Cl.O=c1c2cccn2c2ccccc2n1CCCN1CCC(c2ccc(Cl)cc2)CC1
Response: 7

Request: // query Population Hoechst High Intensity Objects (%) value for entry Cl.O=C(c1ccc(Nc2nccc(-c3cc4ccccc4s3)n2)cc1)N1CCC(N2CCCC2)CC1
Response: 32

Request: // query Population Hoechst High Intensity Objects (%) value for entry C=CCn1c(=O)c2cnc(Nc3ccc(N4CCN(C)CC4)cc3)nc2n1-c1cccc(C(C)(C)O)n1 [ADAVOSERTIB]
Response: 29

Request: // query Population Hoechst High Intensity Objects (%) value for entry CCNc1cc(N[C@H]2CC[C@H](O)CC2)nc(Nc2ccc3c(ccn3Cc3ccccc3)c2)n1
Response: 53

Request: // query Population Hoechst High Intensity Objects (%) value for entry O=C(Nc1ccc(-n2nc(-c3cccnc3)cc2C(F)(F)F)cn1)c1ccc(-c2ccccc2)c(F)c1 [BI 2049]
Response: 7

Request: // query Population Hoechst High Intensity Objects (%) value for entry CCOc1cc(C(=O)N2CCC(N3CCN(C)CC3)CC2)ccc1Nc1ncc2c(n1)N(C1CCCC1)c1ccccc1C(=O)N2C
Response: 5

Request: // query Population Hoechst High Intensity Objects (%) value for entry CCCS(=O)(=O)Nc1ccc(F)c(C(=O)c2c[nH]c3ncc(Cl)cc23)c1F [PLX-4720]
Response: 40

Request: // query Population Hoechst High Intensity Objects (%) value for entry COc1cc(N2CCN(C)CC2)ccc1Nc1ncc2c(n1)N(C)c1ccccc1C(=O)N2C
Response: 6
